Sourced from patent US20200071361A1

settings: cynomolgus monkey, in vivo, iv, 1 mg/kg, AUC0-24hr, macaque, 1 mg/kg IV infusion, Mean
No end group written: not given here.
observation.type: AUC(0-t) (ng·h/mL)

# substance, observed.measurement
data = [
    ("RRWVRRVRRVWRRVVRVVRRWVRR-NH2 [SEQ ID NO: 1]", 1090),
]

* * *

settings: cynomolgus monkey, in vivo, iv, 3 mg/kg, Vss, macaque, 3 mg/kg IV infusion, individual monkey
No end group written: not given here.
observation.type: Vd (L/kg)

# substance, observation.type, observed.measurement
records = [
    ("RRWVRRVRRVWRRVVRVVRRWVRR-NH2 [SEQ ID NO: 1]", "Vd", 1.58),
]

* * *

settings: cynomolgus monkey, in vivo, iv, 3 mg/kg, T 1/2, macaque, 3 mg/kg IV infusion, Mean
No end group written: not given here.

# substance, half-life / h
data = [
    ("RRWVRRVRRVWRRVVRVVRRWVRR-NH2 [SEQ ID NO: 1]", 5.2),
]

* * *

conditions: cynomolgus monkey, in vivo, iv, 10 mg/kg, AUC0-24hr, macaque, 10 mg/kg IV infusion, Mean
No end group written: not given here.

# substance, AUC(0-t) (ng·h/mL)
data = [
    ("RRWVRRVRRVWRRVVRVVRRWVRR-NH2 [SEQ ID NO: 1]", 50300),
]

* * *

conditions: mouse, in vivo, iv, 15 mg/kg
No end group written: not given here.
observation.type: Cmax (µg/mL)

# substance, observed.measurement
rows = [
    ("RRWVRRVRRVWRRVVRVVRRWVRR-NH2 [SEQ ID NO: 1]", 163),
]

* * *

settings: cynomolgus monkey, in vivo, iv, 3 mg/kg, AUC0-24hr, macaque, 3 mg/kg IV infusion, Mean
No end group written: not given here.

# substance, AUC(0-t) / ng·h/mL
records = [
    ("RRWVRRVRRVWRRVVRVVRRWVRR-NH2 [SEQ ID NO: 1]", 7580),
]

* * *

details: cynomolgus monkey, in vivo, iv, 10 mg/kg, AUClast, macaque, 10 mg/kg IV infusion, Mean
No end group written: not given here.

# substance, AUC(0-t)
measured = [
    ("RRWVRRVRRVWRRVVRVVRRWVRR-NH2 [SEQ ID NO: 1]", "50300 ng·h/mL"),
]

* * *

settings: cynomolgus monkey, in vivo, iv, 3 mg/kg, T 1/2, macaque, 3 mg/kg IV infusion, individual monkey
No end group written: not given here.

# substance, half-life [h]
measured = [
    ("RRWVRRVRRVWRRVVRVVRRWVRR-NH2 [SEQ ID NO: 1]", 4.4),
]

* * *

settings: cynomolgus monkey, in vivo, iv, 1 mg/kg, Vss, macaque, 1 mg/kg IV infusion, individual monkey
No end group written: not given here.
observation.type: Vd (L/kg)

# substance, observation.type, observed.measurement
data = [
    ("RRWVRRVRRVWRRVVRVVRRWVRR-NH2 [SEQ ID NO: 1]", "Vd", 1.53),
]

* * *

conditions: mouse, in vivo, iv, 15 mg/kg
No end group written: not given here.
observation.type: AUC(0-inf) (µg·h/mL)

# substance, observation.type, measure.unit, observed.measurement
rows = [
    ("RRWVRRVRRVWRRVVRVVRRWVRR-NH2 [SEQ ID NO: 1]", "AUC(0-inf)", "µg·h/mL", 53.8),
]
